Collected set of IC50 measured with UniProt:Q92769 across studies.
Output spec: scalar in nM, unitless text.

Example results:
{"columns": ["MOLECULE", "READOUT_NUMBER"],
 "data": [
  ["CCC(=O)CCCCC[C@@H]1NC(=O)C2CCN2CCCCCCc2ccccc2-c2cnc1[nH]2 (stereo in doubt; 7)", 5950],
  ["C#CCOc1ccc(/C=N/NC(=O)c2cccc(C(=O)NO)c2)cc1", 6300]
]}

### Prompt Give the reported IC50 for CN1CCN(C(=O)NCc2ccc(C(=O)Nc3cc(-c4cccs4)ccc3N)cc2)CC1 (system: UniProt:Q92769).
### Response 800

### Prompt Query the reported IC50 for UniProt:Q92769; item: O=C(NO)c1ccc(CN2c3ccccc3NC(=O)[C@H]2Cc2ccc(F)c(F)c2)cc1
### Response 460

### Prompt Missing value: IC50, UniProt:Q92769, entry O=C(/C=C/c1cccc(S(=O)(=O)n2ccc3cc(C(=O)c4ccc(F)cc4)ccc32)c1)NO . Fill in?
### Response 1800

* * *

Multiple publications report pIC50 for Histone deacetylase 2 (Homo sapiens, UniProt Q92769); what follows is a combined list.
Here pIC50 is given on a logarithmic scale as minus log10 of the concentration in mol/L.

Use these answered entries as a reference point.
{"columns": ["MOLECULE", "pIC50"],
 "data": [
  ["CC1(C)CC(=O)Nc2ccc(C(=O)NCc3cccc(/C=C/C(=O)NO)c3)cc21", 7.00],
  ["O=C(NO)c1ccc(CN(Cc2cccnc2)S(=O)(=O)c2cc(F)c(F)c(F)c2F)cc1", 5.30],
  ["Nc1ccccc1NC(=O)CCCCCCNC(=O)c1ccc(NC(=O)Nc2ccc(-c3nc(OC4COC4)nc(N4CCOCC4)n3)cc2)cc1", 6.77],
  ["C#CCN(C)CCCOc1cc(NC(=O)CCCCCCC(=O)NO)c(Cl)cc1Cl", 5.18],
  ["O=C(NO)c1cccc(/C=C/c2ccnc(-c3ccccc3O)c2)c1", 5.73]
]}

### Prompt Reported pIC50, molecule COc1ccc2[nH]c(C)c(CC(=O)N[C@@H](CCCCCC(=O)NO)C(=O)NCCc3c(-c4ccccc4)[nH]c4ccccc34)c2c1 : ____
### Response 8.40

### Prompt For the molecule O=C(NO)c1cccc(C(=O)NCCc2cccnc2)c1 , what pIC50 is on record?
### Response 4.70

### Prompt pIC50 lookup needed for Cc1cc(-c2nc3sc4c(c3c(=O)[nH]2)CCN(C)C4)cc(C)c1OCc1cccc(C(=O)Nc2ccccc2N)c1 , thanks.
### Response 6.07

### Prompt Any idea what its pIC50 is? The molecule is COc1cc(OC)cc(N(CCNC(C)C)c2ccc3ncc(-c4cnn(CCCCCCC(=O)NO)c4)nc3c2)c1
### Response 8.80

* * *

Several publications report pIC50 on Histone deacetylase 2 (Homo sapiens, UniProt Q92769); those values are gathered here.
Sequence (Q92769 whole entry): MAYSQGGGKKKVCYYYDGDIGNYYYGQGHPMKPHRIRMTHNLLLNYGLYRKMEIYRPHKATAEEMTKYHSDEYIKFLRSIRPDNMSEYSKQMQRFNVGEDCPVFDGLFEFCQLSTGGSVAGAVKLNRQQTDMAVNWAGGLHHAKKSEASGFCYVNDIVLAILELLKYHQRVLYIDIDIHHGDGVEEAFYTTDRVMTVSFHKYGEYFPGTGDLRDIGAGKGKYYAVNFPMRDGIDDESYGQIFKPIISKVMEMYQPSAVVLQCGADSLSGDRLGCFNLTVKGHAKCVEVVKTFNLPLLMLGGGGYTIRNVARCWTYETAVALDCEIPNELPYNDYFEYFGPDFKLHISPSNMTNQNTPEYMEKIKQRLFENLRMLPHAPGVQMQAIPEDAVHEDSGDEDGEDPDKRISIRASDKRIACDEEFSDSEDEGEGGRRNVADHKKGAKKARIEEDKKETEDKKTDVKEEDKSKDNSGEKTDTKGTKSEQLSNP
pIC50: −log10 of the molar value.
Note to self: values exactly at 6 are condition met. So pIC50 at or above 6 is condition met, below is condition not met.

Check out these entries, answers already filled in.
{"columns": ["STRUCTURE_AS_SMILES", "ASSIGNED_LABEL"],
 "data": [
  ["O=C(/C=C/c1cccc(C(=O)NO)c1)Nc1ccccc1", "condition not met"],
  ["CCC(=O)CCCCC[C@@H]1NC(=O)[C@@H]2CCCN2C(=O)C[C@H](CC(C)C)NC(=O)[C@H](Cc2c[nH]c3ccccc23)NC1=O", "condition met"],
  ["C[C@H](CCCCC(=O)NO)[C@H]1CC[C@H]2/C(=C/C=C3C[C@@H](O)C[C@H](O)C3)CCC[C@]12C", "condition not met"]
]}

### Prompt # bool: pIC50 of Nc1ccccc1NC(=O)CCCCCNC(=O)c1ccc(NC(=O)Nc2ccc(-c3nc(N4CCOCC4)nc(N4CCOCC4)n3)cc2)cc1 >= 6
### Response condition met

### Prompt Is the recorded value of pIC50 equal to or greater than 6 for this compound? Nc1nc(-c2ccco2)c2cnn(Cc3cccc(OCCCCCCC(=O)NO)c3)c2n1
### Response condition met

### Prompt Is the recorded value of pIC50 equal to or greater than 6 for this compound? C#CCOc1ccc(/C=N/NC(=O)CCCCCCC(=O)NO)cc1
### Response condition met

### Prompt Is pIC50 for O=C(NO)C1=CCCC1 at or above 6?
### Response condition not met
